molecules and their reported Ki
Molecular target: GABA A receptor α5β3γ2 (hα5) (Homo sapiens, UniProt P18507+P31644)
Construct: expressed in transfected cells; host or cells: HEK293 (transiently transfected), membrane preparation
Test: [3H]flumazenil competition binding assay, human GABA A α5β3γ2
Details: displacement of [3H]flumazenil (0.5 nM) from HEK293 cell membranes expressing α5β3γ2; means of two determinations; read-out: Ki[nM] hα5
Experimental: The affinity of compounds at GABA A receptor subtypes was measured by competition for [3H]flumazenil (85 Ci/mmol; Roche) binding to HEK293 cells expressing rat (stably transfected) or human (transiently transfected) receptors of composition α1β3γ2, α2β3γ2, α3β3γ2 and α5β3γ2. […]
property: Ki (nM)

smiles_record=N#Cc1ccc(-n2cnc(-c3c(-c4ccccc4)noc3CO)c2)cc1 reported=28.2
smiles_record=Cc1onc(-c2ccccc2)c1-c1cn(-c2ccc([N+](=O)[O-])cc2)c(COCc2ccccn2)n1 reported=16.3
smiles_record=CC(=O)c1ccc(-n2cc(-c3c(-c4ccccc4)noc3C)nc2COCc2ccccc2)cc1 reported=5.4
smiles_record=CC(=O)c1ccc(-n2cnc(-c3c(-c4ccc(F)cc4)noc3C)c2)cc1 reported=4.7
smiles_record=COc1ccc(-n2cnc(-c3c(-c4ccccc4)noc3C)c2)cc1 reported=21

---

Target: GABA A receptor α5β3γ2 (hα5) (Homo sapiens, UniProt P18507+P31644)
Construct: expressed in transfected cells; host or cells: HEK293 (transiently transfected), membrane preparation
Assay: [3H]flumazenil competition binding assay, human GABA A α5β3γ2
Settings: displacement of [3H]flumazenil (0.5 nM) from HEK293 cell membranes expressing α5β3γ2; means of two determinations; read-out: Ki[nM] hα5
Description: The affinity of compounds at GABA A receptor subtypes was measured by competition for [3H]flumazenil (85 Ci/mmol; Roche) binding to HEK293 cells expressing rat (stably transfected) or human (transiently transfected) receptors of composition α1β3γ2, α2β3γ2, α3β3γ2 and α5β3γ2. […]
property: Ki (nM)

compound="Cc1onc(-c2ccccc2)c1-c1cn(-c2ccc(C(=O)NC3CCOCC3)cc2)cn1 [Example 77]" measurement_units=nM reported=27.3
compound="CCOc1ccc(-n2cnc(-c3c(-c4ccccc4)noc3C)c2)cc1 [Example 19]" measurement_units=nM reported=28.7
compound="Cc1onc(-c2ccccc2)c1-c1cn(-c2ccc(C#N)cc2)c(COCc2ccccc2)n1 [Example 65]" measurement_units=nM reported=19.1
compound="Cc1onc(-c2ccc(F)cc2)c1-c1cn(-c2ccc(F)cc2)cn1 [Example 114]" measurement_units=nM reported=31
compound="CC(=O)c1ccc(-n2cnc(-c3c(-c4ccccc4F)noc3C)c2)cc1 [Example 36]" measurement_units=nM reported=7.8
compound="Cc1onc(-c2ccccc2)c1-c1cn(-c2ccc(C#N)cc2)cn1 [Example 16]" measurement_units=nM reported=15.1
compound="Cc1onc(-c2ccccc2)c1-c1cn(-c2ccccn2)cn1 [Example 32]" measurement_units=nM reported=19.3
compound="Cc1cccc(-n2cnc(-c3c(-c4ccc(F)cc4)noc3C)c2)c1 [Example 118]" measurement_units=nM reported=29
compound="Cc1onc(-c2ccccc2)c1-c1cn(-c2ccc(C(=O)NC3CCCC3)cc2)cn1 [Example 76]" measurement_units=nM reported=10.9
compound="Cc1onc(-c2ccccc2)c1-c1cn(-c2ccccc2)c(COCc2ccccc2)n1 [Example 146]" measurement_units=nM reported=17.1
compound="Cc1onc(-c2ccccc2)c1-c1cn(-c2ncccn2)c(COCc2ccccc2)n1 [Example 66]" measurement_units=nM reported=6.7
compound="Cc1onc(-c2ccccc2)c1-c1cn(-c2ccc([N+](=O)[O-])cc2)c(C=O)n1 [Example 149]" measurement_units=nM reported=29.9
compound="Cc1onc(-c2ccccc2)c1-c1cn(-c2ccc([N+](=O)[O-])cc2)c(CO)n1 [Example 147]" measurement_units=nM reported=18.1
compound="Cc1onc(-c2ccc(Br)cc2)c1-c1cn(-c2ccc([N+](=O)[O-])cc2)cn1 [Example 50]" measurement_units=nM reported=21.6
compound="Cc1onc(-c2ccc(F)cc2)c1-c1cn(-c2ccc([N+](=O)[O-])cc2)cn1 [Example 47]" measurement_units=nM reported=16.6
compound="CC(=O)c1ccc(-n2cnc(-c3c(-c4ccccc4)noc3C)c2)cc1 [Example 12]" measurement_units=nM reported=5.5
compound="Cc1onc(-c2ccccc2)c1-c1cn(-c2ccc(C(=O)NCCCN3CCOCC3)cc2)cn1 [Example 73]" measurement_units=nM reported=14.6
compound="Cc1onc(-c2cccc(F)c2)c1-c1cn(-c2ccc(C(=O)NCCO)cc2)cn1 [Example 101]" measurement_units=nM reported=27
compound="Cc1onc(-c2ccccc2)c1-c1cn(-c2cccc(Br)c2)cn1 [Example 7]" measurement_units=nM reported=30.9
compound="CCCc1ccc(-n2cnc(-c3c(-c4ccccc4)noc3C)c2)cc1 [Example 9]" measurement_units=nM reported=25.5
compound="Cc1onc(-c2ccccc2)c1-c1cn(-c2ccccc2)cn1 [Example 2]" measurement_units=nM reported=21.7
compound="Cc1onc(-c2ccc(Br)cc2)c1-c1cn(-c2ncccn2)cn1 [Example 51]" measurement_units=nM reported=28.5
compound="Cc1onc(-c2ccccc2)c1-c1cn(-c2ccc([N+](=O)[O-])cc2)c(COCc2ccc(F)cc2)n1 [Example 154]" measurement_units=nM reported=13.5
compound="Cc1onc(-c2ccc(F)cc2)c1-c1cn(-c2cccnc2)cn1 [Example 124]" measurement_units=nM reported=27.2
compound="Cc1onc(-c2ccccc2)c1-c1cn(-c2ccc(C(=O)NCC3CC3)cc2)cn1 [Example 71]" measurement_units=nM reported=16.7
compound="Cc1onc(-c2ccccc2)c1-c1cn(-c2cccc(Cl)c2)cn1 [Example 5]" measurement_units=nM reported=29.1
compound="Cc1onc(-c2ccccc2)c1-c1cn(-c2ccc([N+](=O)[O-])cc2)c(COCc2ccc(C(F)(F)F)nc2)n1 [Example 164]" measurement_units=nM reported=27
compound="CC(=O)c1ccc(-n2cnc(-c3c(-c4ccc(F)cc4)noc3CO)c2)cc1 [Example 140]" measurement_units=nM reported=9.8
compound="Cc1onc(-c2ccccc2)c1-c1cn(-c2ccc(C(F)(F)F)cc2)cn1 [Example 14]" measurement_units=nM reported=30.7
compound="CC(=O)c1ccc(-n2cnc(-c3c(-c4ccc(Br)cc4)noc3C)c2)cc1 [Example 49]" measurement_units=nM reported=9.1
compound="Cc1onc(-c2ccccc2)c1-c1cn(-c2cccc(C(F)(F)F)c2)cn1 [Example 10]" measurement_units=nM reported=20.4
compound="Cc1onc(-c2ccccc2)c1-c1cn(-c2ccc(C(=O)NCc3cccnc3)cc2)cn1 [Example 78]" measurement_units=nM reported=12.8
compound="Cc1onc(-c2ccccc2)c1-c1cn(-c2ccc([N+](=O)[O-])cc2)cn1 [Example 13]" measurement_units=nM reported=11.9
compound="CCOc1ccccc1-n1cnc(-c2c(-c3ccccc3)noc2C)c1 [Example 20]" measurement_units=nM reported=32.4
compound="CSc1ccc(-n2cnc(-c3c(-c4ccccc4)noc3C)c2)cc1 [Example 21]" measurement_units=nM reported=31.5

---

Target: GABA A receptor α5β3γ2 (hα5) (Homo sapiens, UniProt P18507+P31644)
Construct: expressed in transfected cells; host or cells: HEK293 (transiently transfected), membrane preparation
Assay: [3H]flumazenil competition binding assay, human GABA A α5β3γ2
Conditions: displacement of [3H]flumazenil (0.5 nM) from HEK293 cell membranes expressing α5β3γ2; means of two determinations; read-out: Ki[nM] hα5
property: Ki

smiles_record=Cc1onc(-c2ccccc2)c1-c1cn(-c2ccc(C(=O)NC3CCC3)cc2)cn1 reported="2.7 nM"
smiles_record=Cc1onc(-c2ccccc2)c1-c1cn(-c2ccc([N+](=O)[O-])cc2)c(COCc2ccccc2)n1 reported="14.4 nM"
smiles_record=Cc1onc(-c2ccc(F)cc2)c1-c1cn(-c2ccncc2)cn1 reported="13.3 nM"
smiles_record=COc1ccc(-n2cnc(-c3c(-c4ccccc4F)noc3C)c2)cc1 reported="24 nM"
smiles_record=Cc1onc(-c2ccccc2)c1-c1cn(-c2ccc([N+](=O)[O-])cc2)c(COCc2ccncc2)n1 reported="18.2 nM"
smiles_record=Cc1cccc(COCc2nc(-c3c(-c4ccccc4)noc3C)cn2-c2ccc([N+](=O)[O-])cc2)n1 reported="28.2 nM"
smiles_record=Cc1onc(-c2cccc(F)c2)c1-c1cn(-c2ccc(C(=O)NCc3ccccn3)cc2)cn1 reported="32.1 nM"
smiles_record=Cc1onc(-c2ccccc2)c1-c1cn(-c2ncccn2)cn1 reported="15 nM"
smiles_record=CCc1onc(-c2ccc(F)cc2)c1-c1cn(-c2ccc([N+](=O)[O-])cc2)cn1 reported="12.7 nM"
smiles_record=Cc1onc(-c2ccc(F)cc2)c1-c1cn(-c2ccc(C(=O)NC3CCCC3)cc2)cn1 reported="11.9 nM"
smiles_record=COC(=O)c1cccc(-n2cnc(-c3c(-c4ccccc4)noc3C)c2)c1 reported="15.1 nM"
smiles_record=Cc1onc(-c2ccccc2)c1-c1cn(-c2cccc(C#N)c2)cn1 reported="27 nM"
smiles_record=Cc1onc(-c2ccc(F)cc2)c1-c1cn(-c2cccc(C#N)c2)cn1 reported="25.6 nM"
smiles_record=Cc1onc(-c2ccccc2)c1-c1cn(-c2ccc(C(F)(F)F)cc2)c(COCc2ccccc2)n1 reported="14.7 nM"
smiles_record=Cc1onc(-c2ccccc2)c1-c1cn(-c2cccc([N+](=O)[O-])c2)cn1 reported="19.5 nM"
smiles_record=Cc1onc(-c2ccccc2)c1-c1cn(-c2cccc(F)c2)cn1 reported="33.1 nM"
smiles_record=Cc1onc(-c2ccccc2)c1-c1cn(-c2ccc([N+](=O)[O-])cc2)c(COCc2cccnc2)n1 reported="9.5 nM"
smiles_record=Cc1onc(-c2ccccc2)c1-c1cn(-c2ccc(C(=O)NCc3ccncc3)cc2)cn1 reported="14 nM"
smiles_record=Cc1onc(-c2ccccc2)c1-c1cn(-c2ccc(C(=O)NC3CC3)cc2)cn1 reported="5.1 nM"
smiles_record=Cc1onc(-c2ccccc2)c1-c1cn(-c2cccc(C(=O)NC3CC3)c2)cn1 reported="31.8 nM"
smiles_record=Cc1onc(-c2ccc(F)cc2)c1-c1cn(-c2ncccn2)cn1 reported="17.6 nM"
smiles_record=CCc1onc(-c2ccccc2)c1-c1cn(-c2ccc(C(C)=O)cc2)cn1 reported="9.9 nM"
smiles_record=Cc1onc(-c2ccccc2)c1-c1cn(-c2ccc([N+](=O)[O-])cc2)c(CCl)n1 reported="23.3 nM"
smiles_record=Cc1ccc(-n2cnc(-c3c(-c4ccc(F)cc4)noc3C)c2)cc1[N+](=O)[O-] reported="21.5 nM"
smiles_record=CC(=O)c1ccc(-n2cnc(-c3c(-c4ccccc4)noc3C3CC3)c2)cc1 reported="1.64 nM"
smiles_record=CCc1onc(-c2ccc(F)cc2)c1-c1cn(-c2ccc(C(F)(F)F)cc2)cn1 reported="29.8 nM"
smiles_record=Cc1onc(-c2cccc(F)c2)c1-c1cn(-c2ccc(C(=O)NC3CC3)cc2)cn1 reported="17.7 nM"
smiles_record=Cc1onc(-c2ccccc2F)c1-c1cn(-c2ncccn2)cn1 reported="18.3 nM"
smiles_record=C#CCNC(=O)c1ccc(-n2cnc(-c3c(-c4cccc(F)c4)noc3C)c2)cc1 reported="10 nM"
smiles_record=Cc1ccc(COCc2nc(-c3c(-c4ccccc4)noc3C)cn2-c2ccc([N+](=O)[O-])cc2)cc1 reported="17.3 nM"
smiles_record=COC(=O)c1ccc(-n2cnc(-c3c(-c4ccc(F)cc4)noc3C)c2)cc1 reported="13.6 nM"
smiles_record=Cc1onc(-c2ccccc2)c1-c1cn(-c2ccc(F)cc2)cn1 reported="29.6 nM"
smiles_record=O=[N+]([O-])c1ccc(-n2cnc(-c3c(-c4ccccc4)noc3C3CC3)c2)cc1 reported="1.71 nM"
smiles_record=Cc1onc(-c2ccccc2)c1-c1cn(-c2cc(F)cc(F)c2)cn1 reported="29 nM"
